target: UniProt P08069; test: Cellular IGF-1R assay: capture ELISA (MSD) of receptor phosphorylation in Hek293 cells; conditions: Hek293-IGF1R cells, 1 h pre-incubation, 10 min IGF stimulation, pIGF1R capture ELISA
pIC50: −log10 of the molar value.
quantity: pIC50

* CC1(C)CCC(COc2cccc(-c3cn([C@H]4C[C@@H](CN5CC(C(N)=O)C5)C4)c4ncnc(N)c34)c2)O1 (relative stereo) | 6.62 to 6.72
* Nc1ncnc2c1c(-c1cccc(OCC34CCC(CC3)O4)c1)cn2C1CC(CN2CC3CC2C[S+]3[O-])C1 (single isomer, unassigned) [Example 228] | 7.82 to 8.00
* NC(=O)[C@@H]1CCCN1C[C@H]1C[C@@H](n2cc(-c3cccc(OC[C@H]4CCCCO4)c3)c3c(N)ncnc32)C1 | 7.66 to 8.40
* CC1(C)CCC(COc2cccc(-c3cn([C@H]4C[C@@H](CN5CCC(F)(F)CC5)C4)c4ncnc(N)c34)c2)O1 (relative stereo) [Example 53] | 7.43 to 7.49

---

molecular target: IGF-1R (Homo sapiens, UniProt P08069); assay: Cellular IGF-1R assay: capture ELISA (MSD) of receptor phosphorylation in Hek293 cells; details: Hek293-IGF1R cells, 1 h pre-incubation, 10 min IGF stimulation, pIGF1R capture ELISA
Sequence (P08069 31-1367): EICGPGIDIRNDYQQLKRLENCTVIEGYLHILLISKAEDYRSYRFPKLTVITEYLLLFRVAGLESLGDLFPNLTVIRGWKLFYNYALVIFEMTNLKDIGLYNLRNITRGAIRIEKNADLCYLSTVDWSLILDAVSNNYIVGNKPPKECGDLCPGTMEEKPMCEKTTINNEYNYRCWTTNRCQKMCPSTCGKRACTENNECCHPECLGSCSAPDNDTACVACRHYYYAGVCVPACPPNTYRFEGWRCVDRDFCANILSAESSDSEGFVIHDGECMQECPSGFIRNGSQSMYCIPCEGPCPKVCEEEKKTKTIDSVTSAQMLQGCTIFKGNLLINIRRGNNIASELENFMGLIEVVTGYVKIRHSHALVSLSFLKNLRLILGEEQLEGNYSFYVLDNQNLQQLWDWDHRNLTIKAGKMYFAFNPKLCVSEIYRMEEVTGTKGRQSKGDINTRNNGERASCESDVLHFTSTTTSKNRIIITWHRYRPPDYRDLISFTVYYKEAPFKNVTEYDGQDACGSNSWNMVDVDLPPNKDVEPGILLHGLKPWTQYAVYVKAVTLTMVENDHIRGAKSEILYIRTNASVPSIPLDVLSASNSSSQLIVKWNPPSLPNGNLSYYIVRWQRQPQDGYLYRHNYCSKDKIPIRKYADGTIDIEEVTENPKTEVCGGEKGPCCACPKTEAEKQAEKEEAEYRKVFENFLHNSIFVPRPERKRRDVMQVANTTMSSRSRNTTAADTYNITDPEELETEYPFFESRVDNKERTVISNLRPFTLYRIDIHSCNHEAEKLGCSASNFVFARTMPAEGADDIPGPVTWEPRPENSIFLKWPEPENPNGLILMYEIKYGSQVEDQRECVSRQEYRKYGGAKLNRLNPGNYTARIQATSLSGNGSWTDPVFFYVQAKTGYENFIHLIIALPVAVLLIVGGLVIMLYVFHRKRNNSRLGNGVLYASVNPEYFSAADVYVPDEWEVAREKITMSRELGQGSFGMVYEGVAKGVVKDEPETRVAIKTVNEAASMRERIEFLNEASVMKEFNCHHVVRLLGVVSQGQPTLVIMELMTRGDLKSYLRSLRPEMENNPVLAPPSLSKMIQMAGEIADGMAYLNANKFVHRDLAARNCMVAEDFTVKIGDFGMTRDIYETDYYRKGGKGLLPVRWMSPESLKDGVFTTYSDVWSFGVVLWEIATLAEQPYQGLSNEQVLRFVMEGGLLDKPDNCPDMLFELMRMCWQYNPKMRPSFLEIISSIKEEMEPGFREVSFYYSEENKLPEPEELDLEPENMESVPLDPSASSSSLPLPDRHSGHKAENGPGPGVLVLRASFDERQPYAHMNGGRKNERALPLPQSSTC
quantity: IC50 (nM)

* CCC(=O)NCC1CC(n2cc(-c3cccc(OCC45CCC(CC4)O5)c3)c3c(N)ncnc32)C1 (stereo not drawn) [Example 162] | 101
* Nc1ncnc2c1c(-c1cccc(OCC34CCC(CC3)O4)c1)cn2[C@@H]1CCN(C2CCS(=O)(=O)CC2)C1 [Example 215] | 332
* [2H]C1([2H])C([2H])([2H])C2(COc3cccc(-c4cn([C@H]5C[C@@H](CN6CCS(=O)(=O)CC6)C5)c5ncnc(N)c45)c3)OC1([2H])C([2H])([2H])C2([2H])[2H] [Example 166] | 16
* CN1CCN(C[C@H]2CC[C@@H](n3cc(-c4cccc(OCC56CCC(CC5)O6)c4)c4c(N)ncnc43)CC2)CC1 [Example 113] | 178

---

Listed next: entries and their corresponding log10(IC50).
biological target: IGF-1R (Homo sapiens, UniProt P08069); assay: Cellular IGF-1R assay: capture ELISA (MSD) of receptor phosphorylation in Hek293 cells; details: Hek293-IGF1R cells, 1 h pre-incubation, 10 min IGF stimulation, pIGF1R capture ELISA
quantity: log10(IC50) (log10 of the value in nM)

- Nc1ncnc2c1c(-c1cccc(OCC34CCC(CC3)O4)c1)cn2C1CCC(N2CC[C@H](F)C2)CC1 (stereo partly shown): 2.06
- CC1(C)CCC(COc2cccc(-c3cn([C@H]4C[C@@H](CN5CCNC(=O)C5)C4)c4ncnc(N)c34)c2)O1 (stereo partly shown): 2.33
- COC(=O)NC[C@]1(O)C[C@H](n2cc(-c3cccc(OCC45CCC(CC4)O5)c3)c3c(N)ncnc32)C1: 2.61
- CC1(C)CCC(COc2cccc(-c3cn([C@H]4CC[C@H](N5CCOCC5)CC4)c4ncnc(N)c34)c2)O1 (relative stereo): 2.56
- Nc1ncnc2c1c(-c1cccc(OC[C@@H]3CCCO3)c1)cn2[C@H]1C[C@@H](N2CC[S+]([O-])CC2)C1: 2.49
- Nc1ncnc2c1c(-c1cccc(OCC3CCCO3)c1)cn2[C@H]1C[C@@H](CN2CCC(F)(F)CC2)C1 (relative stereo): 2.57
- Nc1ncnc2c1c(-c1cccc(OCC34CCC(CC3)O4)c1)cn2[C@H]1C[C@@]2(CNC(=O)O2)C1: 1.82
- Nc1ncnc2c1c(-c1cccc(OCC34CCC(CC3)O4)c1)cn2[C@H]1C[C@H](O)C1: 2.55
- Nc1ncnc2c1c(-c1cccc(OCC34CCC(CC3)O4)c1)cn2[C@H]1CC[C@@H](n2ccnc2)CC1: 2.38
- CC1CCC(COc2cccc(-c3cn(C4CC(CN5CCC5)C4)c4ncnc(N)c34)c2)O1 (single isomer, unassigned) [Example 6]: 1.48
- Nc1ncnc2c1c(-c1cccc(OCC34CCC(CC3)O4)c1)cn2C1CCC(O)(CNC2CC2)CC1 (stereo not shown): 2.20
- CC1(OC(=O)NC[C@H]2C[C@@H](n3cc(-c4cccc(OCC56CCC(CC5)O6)c4)c4c(N)ncnc43)C2)CC1: 1.32
- Nc1ncnc2c1c(-c1cccc(OCC34CCC(CC3)O4)c1)cn2[C@H]1C[C@H](N2CC3CC2CN3CCO)C1 (stereo partly shown): 2.64
- Nc1ncnc2c1c(-c1cccc(OCC3CCCCO3)c1)cn2[C@H]1C[C@@H](CN2CC[C@@H](O)C2)C1 (stereo partly shown): 2.37
- CC1(O)CC(n2cc(-c3cccc(OCC45CCC(CC4)O5)c3)c3c(N)ncnc32)C1 (stereo not shown): 2.76

---

Listed next: entries and their corresponding IC50.
biological target: IGF-1R (Homo sapiens); assay: Cellular IGF-1R assay: capture ELISA (MSD) of receptor phosphorylation in Hek293 cells; details: Hek293-IGF1R cells, 1 h pre-incubation, 10 min IGF stimulation, pIGF1R capture ELISA
quantity: IC50 (nM)

- Nc1ncnc2c1c(-c1cccc(OCC3CCCCO3)c1)cn2[C@H]1C[C@@H](CN2CCC(F)CC2)C1 (relative stereo): 309
- CC1(C)CCC(COc2cccc(-c3cn(C4CC(CN5CCC(O)C5)C4)c4ncnc(N)c34)c2)O1 (stereo not drawn): 15
- Nc1nccn2c1c(-c1cccc(OCC34CCC(CC3)O4)c1)nc2[C@H]1C[C@@H](N2CCC(O)CC2)C1: 128
- N#Cc1ccnc(N[C@H]2CC[C@@H](n3cc(-c4cccc(OCC56CCC(CC5)O6)c4)c4c(N)ncnc43)CC2)c1: 229
- Nc1ncnc2c1c(-c1cccc(OCC34CCC(CC3)O4)c1)cn2C1CC(O)(CN2CCC(O)C2)C1 (single isomer, unassigned) [Example 207]: 327
- CC1(C(N)=O)CCCN1CC1CC(n2cc(-c3cccc(OCC45CCC(CC4)O5)c3)c3c(N)ncnc32)C1 (stereo not drawn): 8
- Nc1ncnc2c1c(-c1cccc(OCC34CCC(CC3)O4)c1)cn2C1CCC(N2CCC(O)C2)CC1 (stereo not drawn): 374
- NC(=O)[C@@H]1[C@H](O)CCN1C[C@H]1C[C@@H](n2cc(-c3cccc(OCC4CCCO4)c3)c3c(N)ncnc32)C1 (stereo partly drawn): 205
- Nc1ncnc2c1c(-c1cccc(OCC34CCC(CC3)O4)c1)cn2[C@H]1CC[C@@H](NC(=O)CC(F)(F)F)CC1: 593
- NC(=O)[C@@H]1CCCN1[C@H]1C[C@H](n2cc(-c3cccc(OCC45CCC(CC4)O5)c3)c3c(N)ncnc32)C1: 435
- Nc1nccn2c1c(-c1cccc(OCC3CCCCO3)c1)nc2[C@H]1C[C@@H](CN2CCS(=O)(=O)CC2)C1 (stereo partly drawn): 254
- Nc1ncnc2c1c(-c1cccc(OCC34CCC(CC3)O4)c1)cn2C1CCN(C2COC2)CC1: 397
- COC(=O)NCC1CC(n2cc(-c3cccc(OCC45CCC(CC4)O5)c3)c3c(N)ncnc32)C1 (stereo not drawn): 16
- NC(=O)C1CC(F)CN1CC1CC(n2cc(-c3cccc(OCC4CCCCO4)c3)c3c(N)ncnc32)C1 (stereo not drawn) [Example 97]: 105
- CS(=O)(=O)NCC1CC(n2cc(-c3cccc(OCC45CCC(CC4)O5)c3)c3c(N)ncnc32)C1 (stereo not drawn): 167
- Nc1ncnc2c1c(-c1cccc(OCC34CCC(CC3)O4)c1)cn2[C@H]1C[C@@H](O)C1 (relative stereo): 411
- CC(=O)N[C@H]1CC[C@@H](n2cc(-c3cccc(OCC45CCC(CC4)O5)c3)c3c(N)ncnc32)CC1: 238

---

target: IGF-1R (Homo sapiens, UniProt P08069); construct: expressed in transfected cells; host or cells: Hek293 (Hek293-IGF1R); assay: Cellular IGF-1R assay: capture ELISA (MSD) of receptor phosphorylation in Hek293 cells; assay type: cell-based; conditions: Hek293-IGF1R cells, 1 h pre-incubation, 10 min IGF stimulation, pIGF1R capture ELISA
Listed next: entries and their corresponding IC50.
quantity: IC50

- Nc1ncnc2c1c(-c1cccc(OCC34CCC(CC3)O4)c1)cn2[C@H]1C[C@@H](N2CC[S+]([O-])CC2)C1 (relative stereo): 35 to 38 nM
- CN1CCN([C@H]2CC[C@@H](n3cc(-c4cccc(OCC56CCC(CC5)O6)c4)c4c(N)ncnc43)CC2)CC1=O: 319 to 534 nM
- Nc1ncnc2c1c(-c1cccc(OCC34CCC(CC3)O4)c1)cn2C1CC(CN2CCC2)C1 (stereo not shown): 45 to 60 nM
- Nc1ncnc2c1c(-c1cccc(OC[C@H]3CCCCO3)c1)cn2[C@H]1C[C@@H](CN2CCC2)C1 (single isomer, unassigned): 51 to 99 nM
